# Tested on: DU-145
# measurement-protocol: NCI tumour cell line growth inhibition, 48 h
Activity calls are given as the source filed them. No stated cut-off is given here; in the data, active = GI50 up to about 1.1 µM and inactive = higher.
# key: entry, value: GI50
quantity-measured: GI50

[[record]]
molecule = "CS(=O)(=O)c1nc(-c2cc3c(c(S(C)(=O)=O)n2)CCC3)cc2c1CCCC2"
system_name = "DU-145"
quantity_measured = "GI50"
measured = "> 100 µM (inactive)"

[[record]]
molecule = "CC[C@@H]1/C=C/C=C/C[C@H](C)[C@@H](O)[C@](C)(O)C(=O)[C@H](C)[C@@H](O)[C@H](C)C(=O)[C@H](C)[C@@H](O)[C@H](C)/C=C/C(=O)O[C@H]2[C@@H](C)[C@@H](CC1)O[C@]1(O[C@H](CC(C)O)[C@H](C)CC1=O)[C@@H]2C (stereo not given in full)"
system_name = "DU-145"
quantity_measured = "GI50"
measured = "3.3 µM (inactive)"

[[record]]
molecule = "N#Cc1c(N)nc2c(/N=N\\c3ccccc3)c(N)nn2c1Nc1ccccc1"
system_name = "DU-145"
quantity_measured = "GI50"
measured = "18.2 µM (inactive)"

[[record]]
molecule = "Cc1ccccc1C(=O)C#Cc1cn(C2CC(O)C(CO)O2)c(=O)[nH]c1=O (stereo not given)"
system_name = "DU-145"
quantity_measured = "GI50"
measured = "> 100 µM (inactive)"

[[record]]
molecule = "Cc1c2c(OCC3CCCCO3)nn(C)c(=O)c2c(C)n1-c1ccccc1 (stereo not given)"
system_name = "DU-145"
quantity_measured = "GI50"
measured = "17.7 µM (inactive)"

[[record]]
molecule = "COc1ccc(NC(=S)c2ccoc2C)cc1CC(=O)OC(C)C"
system_name = "DU-145"
quantity_measured = "GI50"
measured = "48.3 µM (inactive)"

[[record]]
molecule = "C=CCC1NCCC2=C1C(S(=O)(=O)c1ccc(C)cc1)c1ccccc12 (stereo not given)"
system_name = "DU-145"
quantity_measured = "GI50"
measured = "11.9 µM (inactive)"

[[record]]
molecule = "CCCCn1cc(C(=O)O)c(=O)c2c3sccc3ccc21"
system_name = "DU-145"
quantity_measured = "GI50"
measured = "> 100 µM (inactive)"

[[record]]
molecule = "O=C1c2ccccc2-c2ccc(N(Cc3ccc(Br)cc3)Cc3ccc(Br)cc3)cc21"
system_name = "DU-145"
quantity_measured = "GI50"
measured = "> 100 µM (inactive)"

[[record]]
molecule = "CCOC(=O)CCC(NC(=O)c1ccc(NCc2ccc3nc(OC)c(OC)nc3c2)c2ccccc12)C(=O)OCC (stereo not given)"
system_name = "DU-145"
quantity_measured = "GI50"
measured = "> 100 µM (inactive)"


====

# key: entry, value: GI50
# Tested on: SF-268
# measurement-protocol: NCI tumour cell line growth inhibition, 48 h
The source made the active and inactive calls. Rule as the data show it: active = GI50 up to about 1.1 µM and inactive = higher.
quantity-measured: GI50

[[record]]
structure_smiles = "O=C1C(=Cc2cccc(Cl)c2)N=C(c2ccccc2)N1n1c(-c2ccccc2)nc2ccccc2c1=O"
system_name = "SF-268"
measured = "32.4 µM (inactive)"

[[record]]
structure_smiles = "C=C1C(=O)O[C@H]2C[C@@H]1[C@@H](O)[C@H](O)[C@@H](C)CCCC(C)=CCC[C@@]2(C)O"
system_name = "SF-268"
measured = "22.6 µM (inactive)"

[[record]]
structure_smiles = "CC(=O)CCCCCCCCCCCC[C@@H]1CC[C@H](C)[C@H](O)N1"
system_name = "SF-268"
measured = "> 100 µM (inactive)"

[[record]]
structure_smiles = "CCC(=O)Nc1ccc(NCC(=O)Nc2ccc(OC)cc2)cc1"
system_name = "SF-268"
measured = "17.7 µM (inactive)"


====

# System: SK-MEL-5
# measurement-protocol: NCI tumour cell line growth inhibition, 48 h
Active and inactive are the calls of the source. Cut-off read from the data, not from the text of the source: active = GI50 up to about 1.1 µM and inactive = higher.
quantity-measured: GI50

[[record]]
molecule = "CCCCCCCCOP(=O)(O)OP(=O)(O)OCC1OC(n2ccc(N)nc2=O)C(O)C1O (stereo not given)"
system_name = "SK-MEL-5"
quantity_measured = "GI50"
measured = "> 100 µM (inactive)"

[[record]]
molecule = "Cc1nc2ccccc2c(=O)n1NC(=O)c1ccc([N+](=O)[O-])cc1"
system_name = "SK-MEL-5"
quantity_measured = "GI50"
measured = "> 100 µM (inactive)"

[[record]]
molecule = "O=C(C[n+]1ccccc1)NNC(=O)/C(=C/c1ccc2c(c1)OCO2)NC(=O)c1ccccc1"
system_name = "SK-MEL-5"
quantity_measured = "GI50"
measured = "32.4 µM (inactive)"

[[record]]
molecule = "C/C=C1\\C=C(OC)CN(CCc2c[nH]c3ccccc23)C1"
system_name = "SK-MEL-5"
quantity_measured = "GI50"
measured = "20.2 µM (inactive)"

[[record]]
molecule = "Oc1cc(Cc2ccccc2)c(Cc2ccccc2)cc1O"
system_name = "SK-MEL-5"
quantity_measured = "GI50"
measured = "> 10 µM (inactive)"

[[record]]
molecule = "CCCCNC1=C(C(=O)OCC)/C(=N/NC(=O)c2ccccc2O)CO1"
system_name = "SK-MEL-5"
quantity_measured = "GI50"
measured = "29.2 µM (inactive)"

[[record]]
molecule = "CN1C(c2ccccc2)CC(=NO)CC1c1ccccc1 (stereo not given)"
system_name = "SK-MEL-5"
quantity_measured = "GI50"
measured = "38.2 µM (inactive)"

[[record]]
molecule = "CCSc1nc(COC(=O)NC)c(COC(=O)NC)n1C"
system_name = "SK-MEL-5"
quantity_measured = "GI50"
measured = "> 100 µM (inactive)"

[[record]]
molecule = "C=C(C)CCC(=O)[C@](C)(O)[C@H]1[C@H](O)C[C@@]2(C)[C@@H]3CCc4c(cc(OC5OC(CO)C(O)C(O)C5O)c(O)c4C)C3(C)C(=O)C[C@]12C (stereo not given in full)"
system_name = "SK-MEL-5"
quantity_measured = "GI50"
measured = "> 100 µM (inactive)"

[[record]]
molecule = "CCOc1ccc(OP2(=O)NC(=O)C=C(C)N2)cc1 (stereo not given)"
system_name = "SK-MEL-5"
quantity_measured = "GI50"
measured = "> 100 µM (inactive)"


====

# Test system: OVCAR-4
# measurement-protocol: NCI tumour cell line growth inhibition, 48 h
The source made the active and inactive calls. No stated cut-off is given here; in the data, active = GI50 up to about 1.1 µM and inactive = higher. Starred links: 1 amine or outer side, 2 acyl side, 3 side chain; linkers in the order of their positions; H or OH if unused. Non-standard residues stand in square brackets, D forms with d. Residues, ends and D or L forms follow the SMILES beside them. X4 = C[C@H](N[*:1])C(=O)C(C)(C)C(=O)[*:2]; Hmpa(2S,3S) = CC[C@H](C)[C@H](O)C(=O)O; NMeY = CN[C@@H](Cc1ccc(O)cc1)C(=O)O; NMeL = CN[C@@H](CC(C)C)C(=O)O; NMeV = CN[C@H](C(=O)O)C(C)C; βAla = NCCC(=O)O
Possible outcomes: Y for active, N for inactive

[[record]]
compound = "CC(C)(C)n1c(=O)n2c(-c3ccccc3)c(-c3ccccc3)n2c1=O"
label = "N"

[[record]]
compound = "CN(C)CC1CCCC(CN(C)C)C1OC(=O)c1ccccc1 (stereo not given)"
label = "N"

[[record]]
compound = "CCc1cccc(C)c1NC(=O)CCc1nnc(S)[nH]1"
label = "N"

[[record]]
compound = "c1cc2sc1CSCCSCCSC2"
label = "N"

[[record]]
compound = "CC1CC(=O)CC[C@@H]1OCc1ccccc1 (stereo not given in full)"
label = "N"

[[record]]
compound = "ClCCN1CCO/C1=N/c1ccc2c(c1)CCCC2"
label = "N"

[[record]]
compound = "COc1ccc(/C=C2\\CNC/C(=C\\c3ccc(OC)cc3)C2=O)cc1"
label = "N"

[[record]]
compound = "Cc1nnc(N/N=C2\\C(=O)Nc3ccccc32)n1N"
label = "N"

[[record]]
compound = "CCC(C)C(C(=O)N/N=C1/SCC(=O)N1C)C(=O)N/N=C1/SCC(=O)N1C (stereo not given)"
label = "N"

[[record]]
compound = "CCOP(=O)(C/C(O)=C1\\C(=O)C(CCCCNC(=O)OC(C)(C)C)N(Cc2ccccc2)C1=O)OCC (stereo not given)"
label = "N"

[[record]]
compound = "Oc1cc(Cc2ccccc2)c(Cc2ccccc2)cc1O"
label = "N"

[[record]]
compound = "CCOc1cccc(/C=N/N=C2\\C(=O)Nc3c(Cl)cc(Cl)cc32)c1O"
label = "N"

[[record]]
compound = "CCOC(=O)/C=C(/C(=O)OCC)n1cc(C)c(=O)n(Cc2cnnn2CCCCOC(C)=O)c1=O"
label = "N"

[[record]]
compound = "O=C(C[n+]1ccccc1)NNC(=O)/C(=C/c1ccc2c(c1)OCO2)NC(=O)c1ccccc1"
label = "N"

[[record]]
compound = "COc1cc2c(cc1OC)-c1cc3cc(OC)c(OC)cc3c(C)[n+]1CC2.O=C([O-])CS(=O)(=O)O"
label = "N"

[[record]]
compound = "CSCSCC(CO)NC(=O)/C=C\\c1c(C)[nH]c(=O)[nH]c1=O (stereo not given)"
label = "N"

[[record]]
compound = "CCC(=O)Nc1ccc(NCC(=O)Nc2ccc(OC)cc2)cc1"
label = "N"

[[record]]
compound = "NC(=O)C(=O)N/N=C1/c2ccccc2CC1C1(O)C(=O)Nc2c(Cl)cc(Cl)cc21 (stereo not given)"
label = "N"

[[record]]
compound = "CC[C@H](C)[C@@H]1OC(=O)CCNC(=O)[C@@H](C)NC(=O)C(C)(C)C(=O)[C@H](C)NC(=O)[C@H](Cc2ccc(OC)cc2)N(C)C(=O)[C@H](C(C)C)N(C)C(=O)CNC(=O)[C@H](CC(C)C)N(C)C(=O)CNC1=O (cyclo(G[NMeL]G[NMeV][NMeY](Me)[X4][dA][βAla][Hmpa(2S,3S)]))"
label = "Y"

[[record]]
compound = "COC(=O)[C@]12CSC[C@H]1C[C@H](c1ccc(N(C)C)cc1)N2"
label = "N"

